# System: Staphylococcus saprophyticus (ATCC 15305)
# protocol: Antimicrobial kill (microdilution) assay, MIC/MBC by CFU count
# Type: cell-based
# conditionDescription: lowest concentration that inhibits the growth of 90% of the inoculation; 3 hours, 0.1×PBS
Primed or numbered codes have the meaning given here. No end group written: not given here. *: point of attachment. His tag″ = six-residue histidine tag (His-tag) at the NH2-terminus, N[C@@H](Cc1c[nH]cn1)C(=O)N[C@@H](Cc1c[nH]cn1)C(=O)N[C@@H](Cc1c[nH]cn1)C(=O)N[C@@H](Cc1c[nH]cn1)C(=O)N[C@@H](Cc1c[nH]cn1)C(=O)N[C@@H](Cc1c[nH]cn1)C(=O)*; His tag = six-residue histidine tag at the N-terminus, N[C@@H](Cc1c[nH]cn1)C(=O)N[C@@H](Cc1c[nH]cn1)C(=O)N[C@@H](Cc1c[nH]cn1)C(=O)N[C@@H](Cc1c[nH]cn1)C(=O)N[C@@H](Cc1c[nH]cn1)C(=O)N[C@@H](Cc1c[nH]cn1)C(=O)*
// reported S. saprophyticus MIC per item
Field: numeric (µM). Do not append units.

Study these solved cases before continuing.
substance | testTarget | S. saprophyticus MIC (µM)
F:1-45: recombinant N-terminal RNase 7 fragment, amino acids 1 to 45 (SEQ ID NO: 2), N-terminal His tag ({His tag″}-KPKGMTSSQWFKIQHMQPSPQACNSAMKNINKHTKRCKDLNTFLH; ends and bridges not checked; listed as Homo sapiens) | Staphylococcus saprophyticus (ATCC 15305) | 0.13
F:46-97: recombinant middle RNase 7 fragment, amino acids 46 to 97, beta sheets 2-4, N-terminal His tag ({His tag}-EPFSSVAATCQTPKIACKNGDKNCHQSHGPVSLTMCKLTSGKYPNCRYKEKR; ends and bridges not checked) | Staphylococcus saprophyticus (ATCC 15305) | 0.44

Would you kindly look at the next entry?
Prompt line: Checklist item: S. saprophyticus MIC tested on Staphylococcus saprophyticus (ATCC 15305), entry F:84-128: recombinant C-terminal RNase 7 fragment, amino acids 84 to 128, N-terminal His tag ({His tag}-TSGKYPNCRYKEKRQNKSYVVACKPPQKKDSQQFHLVPVHLDRVL; cysteine pairing not given here) , value?
Response line: 1.75
